I'd be grateful if you could share measured pIC50 for these entries.
# target: Recombinant JAK3 (Amino acids 781-1124) (Homo sapiens, UniProt P52333)
# Construct: JAK3 (Amino acids 781-1124; NM_000215.3)
# Sequence (P52333 781-1124): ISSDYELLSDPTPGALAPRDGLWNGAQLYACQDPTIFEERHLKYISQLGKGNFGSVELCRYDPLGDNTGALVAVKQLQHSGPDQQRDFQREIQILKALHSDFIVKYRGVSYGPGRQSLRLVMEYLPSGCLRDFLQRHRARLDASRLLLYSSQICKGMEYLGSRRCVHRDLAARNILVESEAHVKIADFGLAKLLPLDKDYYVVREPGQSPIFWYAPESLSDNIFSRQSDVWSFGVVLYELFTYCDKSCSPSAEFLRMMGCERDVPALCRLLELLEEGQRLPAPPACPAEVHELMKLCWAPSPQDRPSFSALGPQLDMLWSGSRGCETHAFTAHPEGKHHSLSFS
# assay: Kinase-Glo Luminescent Kinase Assay, recombinant JAK3
# condition-notes: 200 μg/ml Poly Glu-Tyr (4:1), ATP 1 uM, 90 min room temperature, luminescence
pIC50: −log10 of the molar value.

Recall and state the measured pIC50 for O=C(C1CCOC1)N1CCCC(c2ncnc3cnc4[nH]ccc4c23)C1 (stereo not shown) .
< 7.70

Recall and state the measured pIC50 for CC(C)NC(=O)C1CCN(c2ccnc3cnc4[nH]ccc4c23)C1 (stereo not shown) .
< 7.70

Give a short answer stating reported pIC50 for CCNC(=O)C1CCCN(c2ccnc3cnc4[nH]ccc4c23)C1 (stereo not shown) .
< 7.70

Fill in reported pIC50 for this entry: CC(C)(C)OC(=O)N1CCN(c2ccnc3cnc4[nH]ccc4c23)CC1
< 7.70

Give pIC50 for O=C(NC1CC1)[C@H]1CCCN(c2ccnc3cnc4[nH]ccc4c23)C1 [Ex. 61A]
< 7.70

Given the molecule O=S(=O)(CC(F)(F)F)N1CCN(c2ccnc3cnc4[nH]ccc4c23)CC1 , write its reported pIC50.
< 7.70

Give the reported value of pIC50 for this record: CS(=O)(=O)NC1CCCN(c2ccnc3cnc4[nH]ccc4c23)C1 (stereo not shown)
7.70 to 9.00

Dear colleague, please send me the reported pIC50 for CC(C)CC(=O)N1CCCC(c2ccnc3cnc4[nH]ccc4c23)C1 (stereo not shown) when you can.
< 7.70

Dear colleague, please send me the reported pIC50 for N#CCC(=O)N1CCC[C@@H](c2ccnc3cnc4[nH]ccc4c23)C1 when you can.
> 9.00

Query pIC50 for N#CCC(=O)N1CC[C@@H](c2ccnc3cnc4[nH]ccc4c23)C1 [Ex. 14B]
< 7.70

Tell me its pIC50 given O=C(CC(F)(F)F)N1CCC[C@H](c2ncnc3cnc4[nH]ccc4c23)C1 [Ex. 24B] as the entry.
7.70 to 9.00

Specify pIC50 for CC(C)NC(=O)NC1CCN(c2ccnc3cnc4[nH]ccc4c23)C1 (stereo not shown) and stop.
< 7.70

Return pIC50 for the following molecule: N#CCC(=O)N1CCC(c2ccnc3cnc4[nH]ccc4c23)C1 (stereo not shown)
< 7.70

====

# target: Recombinant JAK2 (Amino acids 808-1132) (Homo sapiens)
# Construct: JAK2 (Amino acids 808-1132; NM_004972.3)
# Sequence (O60674 808-1132): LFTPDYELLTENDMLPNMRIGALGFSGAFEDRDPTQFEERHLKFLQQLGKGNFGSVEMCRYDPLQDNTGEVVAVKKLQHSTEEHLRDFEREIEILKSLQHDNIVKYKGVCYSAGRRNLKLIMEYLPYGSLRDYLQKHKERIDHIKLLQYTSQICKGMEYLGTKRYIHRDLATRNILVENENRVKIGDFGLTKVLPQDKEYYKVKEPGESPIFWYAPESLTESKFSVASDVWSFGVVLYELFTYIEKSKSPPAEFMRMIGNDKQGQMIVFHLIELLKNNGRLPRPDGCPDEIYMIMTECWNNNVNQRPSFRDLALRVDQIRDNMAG
# assay: Kinase-Glo Luminescent Kinase Assay, recombinant JAK2
# condition-notes: 200 μg/ml Poly Glu-Tyr (4:1), ATP 1 uM, 90 min room temperature, luminescence
Answer each item with its documented IC50.

Using known records, supply IC50 for O=C(NC1CC1)[C@H]1CCCN(c2ccnc3cnc4[nH]ccc4c23)C1 [Ex. 61A]
> 20 nM

Provide only the value of recorded IC50 for N#CCS(=O)(=O)N1CC[C@@H](c2ccnc3cnc4[nH]ccc4c23)C1 [Ex. 16B]
> 20 nM

Please list IC50 recorded for the compound O=S(=O)(C1CC1)N1CCCC(c2ncnc3cnc4[nH]ccc4c23)C1 (stereo not shown)
> 20 nM

Provide measured IC50 value, entry: N#CCC(=O)N1CC[C@H](c2ccnc3cnc4[nH]ccc4c23)C1 [Ex. 14A]
> 20 nM

Give the reported IC50 for this compound. CC(C)CC(=O)N1CCCC(c2ncnc3cnc4[nH]ccc4c23)C1 (stereo not shown)
> 20 nM

Specify measured IC50 for CC(C)(C)OC(=O)NC1CCN(c2ccnc3cnc4[nH]ccc4c23)C1 (stereo not shown) .
> 20 nM

Consider the compound CC(C)/C(=N\C#N)N1CCC[C@@H](c2ccnc3cnc4[nH]ccc4c23)C1 [Ex. 43B] and give its recorded IC50.
1 to 20 nM

Report IC50, nothing else, for this compound: c1cc(N2CCC(OCC3CC3)C2)c2c(cnc3[nH]ccc32)n1 (stereo not shown)
> 20 nM

Output measured IC50 for this item: CC(C)/C(=N\C#N)N1CCC[C@H](c2ccnc3cnc4[nH]ccc4c23)C1 [Ex. 43A]
> 20 nM

Return value of IC50 for input O=S(=O)(CC(F)(F)F)NC1CCCN(c2ccnc3cnc4[nH]ccc4c23)C1 (stereo not shown) , no commentary.
1 to 20 nM
